# TARGET_OR_SYSTEM: T1, human CD19 (human, UniProt P15391 20-556)
# T1 construct: also called B-cell surface antigen B4; B-cell antigen CD19
# T1 sequence: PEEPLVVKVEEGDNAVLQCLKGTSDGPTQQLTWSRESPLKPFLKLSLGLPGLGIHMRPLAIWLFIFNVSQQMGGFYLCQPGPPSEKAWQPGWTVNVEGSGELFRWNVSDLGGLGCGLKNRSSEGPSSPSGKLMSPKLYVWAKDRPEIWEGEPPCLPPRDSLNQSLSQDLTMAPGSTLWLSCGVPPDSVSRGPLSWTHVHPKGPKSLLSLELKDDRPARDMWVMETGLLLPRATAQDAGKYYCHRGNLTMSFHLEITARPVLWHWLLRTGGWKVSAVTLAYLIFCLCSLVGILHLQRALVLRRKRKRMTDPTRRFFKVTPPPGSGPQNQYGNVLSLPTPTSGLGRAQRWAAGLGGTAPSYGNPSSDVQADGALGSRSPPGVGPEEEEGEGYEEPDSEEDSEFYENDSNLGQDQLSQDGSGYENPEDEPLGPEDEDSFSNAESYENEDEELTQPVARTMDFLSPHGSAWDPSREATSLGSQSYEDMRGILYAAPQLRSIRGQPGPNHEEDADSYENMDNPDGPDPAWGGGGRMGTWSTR
# PROTOCOL_DETAILS: binding affinity relative to the parent H1L1 mAb (Example 5); assay and format not named on the sheet
QUANTITY_MEASURED: Fold change binding (fold)
Your answer is read as fold, so omit the unit and give the number.

Check out these entries, answers already filled in.
>>> observed_measurement("H1 / L1.11 (antibody, V domains shown, vs H1L1 (Kabat): VL E93N; also called 4G7 H1_L1.11) VH: EVQLVESGGGLVKPGGSLKLSCAASGYTFTSYVMHWVRQAPGKGLEWIGYINPYNDGTKYNEKFQGRVTISSDKSISTAYMELSSLRSEDTAMYYCARGTYYYGSRVFDYWGQGTLVTVSS VL: DIVMTQSPATLSLSPGERATLSCRSSKSLLNSNGNTYLYWFQQKPGQSPQLLIYRMSNLASGVPDRFSGSGSGTEFTLTISSLEPEDFAVYYCMQHLNYPFTFGAGTKLEIK")
1.59
>>> observed_measurement("H1.192 / L1.141 (antibody, V domains shown, vs H1L1 (Kabat): VH T57P/S100cT; VL A55N/F96N; also called 4G7 H1.192_L1.141) VH: EVQLVESGGGLVKPGGSLKLSCAASGYTFTSYVMHWVRQAPGKGLEWIGYINPYNDGPKYNEKFQGRVTISSDKSISTAYMELSSLRSEDTAMYYCARGTYYYGTRVFDYWGQGTLVTVSS VL: DIVMTQSPATLSLSPGERATLSCRSSKSLLNSNGNTYLYWFQQKPGQSPQLLIYRMSNLNSGVPDRFSGSGSGTEFTLTISSLEPEDFAVYYCMQHLEYPNTFGAGTKLEIK")
2.57

Proceed to the following item.
Reported Fold change binding, binder H1.113 / L1 (antibody, V domains shown, vs H1L1 (Kabat): VH T57H; also called 4G7 H1.113_L1) VH: EVQLVESGGGLVKPGGSLKLSCAASGYTFTSYVMHWVRQAPGKGLEWIGYINPYNDGHKYNEKFQGRVTISSDKSISTAYMELSSLRSEDTAMYYCARGTYYYGSRVFDYWGQGTLVTVSS VL: DIVMTQSPATLSLSPGERATLSCRSSKSLLNSNGNTYLYWFQQKPGQSPQLLIYRMSNLASGVPDRFSGSGSGTEFTLTISSLEPEDFAVYYCMQHLEYPFTFGAGTKLEIK : ____
1.29
